- Test system: Plasmodium berghei, ANKA malaria strain
- ASSAY_DETAILS: In vivo antimalarial efficacy, single oral dose of trioxane combined with mefloquine hydrochloride in P. berghei infected mice
- ASSAY_CONDITIONS: single oral dose 24 h post infection: trioxane 6 mg/kg + mefloquine hydrochloride 18 mg/kg; C57BL/6J male mice, 4 per group
READOUT_LABEL: average survival (days) after infection
Answers are plain numbers, in days.

Solved cases below.
INSERT INTO results (compound, system, readout_label, observed_result) VALUES
  ('COc1cccc(NC(=O)CC[C@H]2O[C@@H]3O[C@]4(C)CC[C@H]5[C@H](C)CC[C@@H]([C@H]2C)[C@@]35OO4)c1 [12p]', 'Plasmodium berghei, ANKA malaria strain', 'average survival (days) after infection', 21.8),
  ('CSc1cccc(NC(=O)CC[C@H]2O[C@@H]3O[C@@]4(C)CC[C@H]5[C@H](C)CC[C@@H]([C@H]2C)[C@@]35OO4)c1 [12d, 3-arteSanilide]', 'Plasmodium berghei, ANKA malaria strain', 'average survival (days) after infection', 30),
  ('C[C@H]1[C@@H](CCC(=O)Nc2cccc([S+](C)[O-])c2)O[C@@H]2O[C@]3(C)CC[C@H]4[C@H](C)CC[C@@H]1[C@@]24OO3 (stereo partly shown) [12h]', 'Plasmodium berghei, ANKA malaria strain', 'average survival (days) after infection', 30);

Please look at the items below and tell me average survival (days) after infection for each one, in order.
1. CCCS(=O)(=O)c1ccccc1NC(=O)CC[C@H]1O[C@@H]2O[C@]3(C)CC[C@H]4[C@H](C)CC[C@@H]([C@H]1C)[C@@]24OO3 [12n]
2. CSc1ccccc1NC(=O)CC[C@H]1O[C@@H]2O[C@@]3(C)CC[C@H]4[C@H](C)CC[C@@H]([C@H]1C)[C@@]24OO3 [12e, 2-arteSanilide]
3. CCCS(=O)(=O)c1cccc(NC(=O)CC[C@H]2O[C@@H]3O[C@]4(C)CC[C@H]5[C@H](C)CC[C@@H]([C@H]2C)[C@@]35OO4)c1 [12m]

# output
[21.8, 27.0, 11.0]

Please give average survival (days) after infection, item by item, for the list that follows.
1. CSc1cc(NC(=O)CC[C@H]2O[C@@H]3O[C@@]4(C)CC[C@H]5[C@H](C)CC[C@@H]([C@H]2C)[C@@]35OO4)cc(SC)c1 [12f, 3,5-arteSSanilide]
2. CCCSc1cccc(NC(=O)CC[C@H]2O[C@@H]3O[C@]4(C)CC[C@H]5[C@H](C)CC[C@@H]([C@H]2C)[C@@]35OO4)c1 [12l]
3. C[C@H]1[C@@H](CCC(=O)Nc2cccc([S+](C)[O-])c2)O[C@@H]2O[C@@]3(C)CC[C@H]4[C@H](C)CC[C@@H]1[C@@]24OO3 (stereo partly shown) [12g]

# output
[30, 23.0, 23.0]

# input Form: Entry = CO[C@H]1O[C@@H]2O[C@@]3(C)CC[C@H]4[C@H](C)CC[C@@H]([C@H]1C)[C@@]24OO3 [artemether (2b), artemether, reference compound] | System = Plasmodium berghei, ANKA malaria strain | average survival (days) after infection = ____
# output 18.8
